# pIC50 listing for each entry below
Test system: THP-1 cells
Test: TNFα generation assay
Assay type: cell-based, human
Settings: Homo sapiens, THP-1, THP-1 cells; Table 22; read-out: IC50 in TNFα generation assay
pIC50: −log10 of the molar value.

Here's what some known entries look like.
Data request: Name the reported pIC50 value associated with the molecule `C[C@H](N)[C@H](Nc1nc(Nc2cncc(-n3cccn3)c2)c(C(N)=O)cc1F)C1CC1`
Data returned: > 7.19

Data request: Try this molecule next: Cn1nc(F)c2cc(Nc3nc(NC4CCCCC4N)c(F)cc3C(N)=O)ccc21 (stereo not shown)
Data returned: 6.89 to 7.19

Data request: Try this molecule next: `CCc1ncc(Nc2nc(N[C@@H]3CCCC[C@@H]3N)c(F)cc2C(N)=O)cc1C`
Data returned: 6.89 to 7.19

// next item, pIC50 requested
Data request: Name the reported pIC50 value associated with the molecule `CC(C)C[C@H](CN)Nc1nc(Nc2ccnc(-n3ccnn3)c2)c(C(N)=O)cc1F`
Data returned: 6.70 to 6.89

---

Biological target: glutathione S-transferase (GST)-fused full-length human Syk protein (Homo sapiens, UniProt P43405)
Construct: (GST)-fused full-length human Syk protein; GST (glutathione S-transferase); purchased Carna Biosciences
Assay: Syk enzyme assay
Format: biochemical
Details: Syk enzyme assay, Test Example 1; read-out: IC50 of Syk-inhibitory activity
pIC50: −log10 of the molar value.
Quantity kind: pIC50

Here's what some known entries look like.
Data request: Name the reported pIC50 value associated with the compound `COCCOc1ncc(Nc2nc(N[C@@H]3CCCC[C@@H]3N)c(F)cc2C(N)=O)cc1N1CCOCC1`
Data returned: 6.00 to 7.00

Data request: Try this compound next: Cn1c(C(=O)N2CCOCC2)cc2c(Nc3nc(NC4CCCC[C@@H]4N)c(F)cc3C(N)=O)ccnc21 (some centres unmarked)
Data returned: 6.00 to 7.00

Data request: Try this compound next: NC(=O)c1cc(F)c(NC2CCCCC2N)nc1Nc1ccnc(-c2cccc(F)c2F)c1 (centres unmarked)
Data returned: > 8.00

Continuing:
Data request: Name the reported pIC50 value associated with the compound `CCOc1ncc(Nc2nc(N[C@@H]3CCCC[C@@H]3N)c(F)cc2C(N)=O)cc1-n1nccn1`
Data returned: > 8.00

---

# pIC50 listing for each entry below
Target: glutathione S-transferase (GST)-fused full-length human Syk protein (Homo sapiens)
Construct: (GST)-fused full-length human Syk protein; GST (glutathione S-transferase); purchased Carna Biosciences
Assay: Syk enzyme assay
Type: biochemical
Conditions: Syk enzyme assay, Test Example 1; read-out: IC50 of Syk-inhibitory activity
pIC50: −log10 of the molar value.

Here's what some known entries look like.
Data request: Name the reported pIC50 value associated with the molecule CCCOc1ccc2cc(Nc3nc(NC4CCCCC4N)c(F)cc3C(N)=O)ccc2n1 (centres unmarked) [Example 002-104]
Data returned: > 8.00

Data request: Try this molecule next: NC(=O)c1cc(F)c(N[C@@H]2CCCC[C@@H]2N)nc1Nc1cncc(-c2ccc(N3CCCC3=O)cc2)c1 (relative stereo) [Example 004-226]
Data returned: > 8.00

Data request: Try this molecule next: NC(=O)c1cc(F)c(N[C@@H]2CCCC[C@@H]2N)nc1Nc1cncc(-c2ccccc2OCC2CC2)c1 [Example 004-184]
Data returned: 7.30 to 8.00

Data request: Try this molecule next: CC[C@@H](Nc1nc(Nc2ccc3cccnc3c2)c(C(N)=O)cc1F)[C@H](C)N [Example 006-261]
Data returned: > 8.00

Data request: Try this molecule next: NC(=O)c1cc(F)c(N[C@@H]2CCCC[C@@H]2N)nc1Nc1cncc(-c2ccccc2O)c1 (relative stereo) [Example 004-186]
Data returned: > 8.00

Continuing:
Data request: Name the reported pIC50 value associated with the molecule CCC[C@@H](Nc1nc(Nc2cnc(C)c(C3CC3)c2)c(C(N)=O)cc1F)[C@H](C)N [Example 006-250]
Data returned: > 8.00

Data request: Try this molecule next: CCc1ncc(Nc2nc(N[C@@H]3CCCC[C@@H]3N)c(F)cc2C(N)=O)cc1C [Example 006-502]
Data returned: > 8.00

---

Biological target: glutathione S-transferase (GST)-fused full-length human Syk protein (Homo sapiens, UniProt P43405)
Construct: (GST)-fused full-length human Syk protein; GST (glutathione S-transferase); purchased Carna Biosciences
Assay: Syk enzyme assay
Type: biochemical
Settings: Syk enzyme assay, Test Example 1; read-out: IC50 of Syk-inhibitory activity
Quantity kind: IC50

Here's what some known entries look like.
Data request: Name the reported IC50 value associated with the compound CCCOc1ccc2cc(Nc3nc(N[C@@H]4CCCC[C@@H]4N)c(F)cc3C(N)=O)cnc2c1 (relative stereo)
Data returned: < 10 nM

Data request: Try this compound next: Cc1cc(Nc2nc(NC3CCCCC3N)c(F)cc2C(N)=O)c(F)cn1 (centres unmarked)
Data returned: 50 to 100 nM

Continuing:
Data request: Name the reported IC50 value associated with the compound NC(=O)c1cc(F)c(N[C@@H]2CCCC[C@@H]2N)nc1Nc1ccnc(-n2cccc2)c1 (relative stereo)
Data returned: < 10 nM

Data request: Try this compound next: COc1ccnc2cc(Nc3nc(NC4CCCCC4N)c(F)cc3C(N)=O)ccc12 (centres unmarked)
Data returned: 10 to 50 nM

---

# IC50 listing for each entry below
Molecular target: glutathione S-transferase (GST)-fused full-length human Syk protein (Homo sapiens)
Construct: (GST)-fused full-length human Syk protein; GST (glutathione S-transferase); purchased Carna Biosciences
Test: Syk enzyme assay
Type: biochemical
Settings: Syk enzyme assay, Test Example 1; read-out: IC50 of Syk-inhibitory activity

Data request: Name the reported IC50 value associated with the molecule CCOCCOCCOc1nccc2cc(Nc3nc(N[C@@H]4CCCC[C@@H]4N)c(F)cc3C(N)=O)ccc12 (relative stereo) [Example 004-169]
Data returned: < 10 nM

Continuing:
Data request: Name the reported IC50 value associated with the molecule COc1cc(Nc2nc(N[C@@H](CN)c3ccccc3)c(F)cc2C(N)=O)ccn1 [Example 006-133]
Data returned: 10 to 50 nM

Data request: Try this molecule next: NC(=O)c1cc(F)c(N[C@@H]2CCCC[C@@H]2N)nc1Nc1cncc(-n2ccnn2)c1 [Example 004-043]
Data returned: 100 to 1000 nM

Data request: Try this molecule next: CC1CN(c2ccc(Nc3nc(NC4CCCCC4N)c(F)cc3C(N)=O)cn2)CC(C)O1 (stereo not shown) [Example 002-127]
Data returned: 10 to 50 nM

Data request: Try this molecule next: NC(=O)c1cc(F)c(N[C@@H]2CCCC[C@@H]2N)nc1Nc1cccc2cnccc12 (relative stereo) [Example 004-159]
Data returned: < 10 nM

Data request: Try this molecule next: CC(C)Oc1nccc2cc(Nc3nc(N[C@@H]4CCCC[C@@H]4N)c(F)cc3C(N)=O)ccc12 (relative stereo) [Example 004-166]
Data returned: < 10 nM

Data request: Try this molecule next: Cc1nn(C)c2ccc(Nc3nc(N[C@H](CC4CC4)[C@H](C)N)c(F)cc3C(N)=O)cc12 [Example 006-442]
Data returned: < 10 nM

---

Target: glutathione S-transferase (GST)-fused full-length human Syk protein (Homo sapiens, UniProt P43405)
Construct: (GST)-fused full-length human Syk protein; GST (glutathione S-transferase); purchased Carna Biosciences
Experiment: Syk enzyme assay
Assay type: biochemical
Conditions: Syk enzyme assay, Test Example 1; read-out: IC50 of Syk-inhibitory activity
Quantity kind: IC50

Data request: Name the reported IC50 value associated with the molecule NC(=O)c1cc(F)c(N[C@@H]2CCCC[C@@H]2N)nc1Nc1cncc(-c2cccc(Cl)c2F)c1 (relative stereo)
Data returned: < 0.01 µM

---

# pIC50 listing for each entry below
Target: glutathione S-transferase (GST)-fused full-length human Syk protein (Homo sapiens)
Construct: (GST)-fused full-length human Syk protein; GST (glutathione S-transferase); purchased Carna Biosciences
Test: Syk enzyme assay
Assay type: biochemical
Details: Syk enzyme assay, Test Example 1; read-out: IC50 of Syk-inhibitory activity
pIC50: −log10 of the molar value.

Data request: Name the reported pIC50 value associated with the compound COc1ccccc1C(=O)Nc1cncc(Nc2nc(NC3CCCCC3N)c(F)cc2C(N)=O)c1 (centres unmarked)
Data returned: 7.30 to 8.00

Continuing:
Data request: Name the reported pIC50 value associated with the compound `NC(=O)c1cc(F)c(NCc2ccc[nH]2)nc1Nc1ccc2ncccc2c1`
Data returned: 6.00 to 7.00

---

# pIC50 listing for each entry below
Biological target: glutathione S-transferase (GST)-fused full-length human Syk protein (Homo sapiens, UniProt P43405)
Construct: (GST)-fused full-length human Syk protein; GST (glutathione S-transferase); purchased Carna Biosciences
Assay: Syk enzyme assay
Assay type: biochemical
Details: Syk enzyme assay, Test Example 1; read-out: IC50 of Syk-inhibitory activity
pIC50: −log10 of the molar value.

Here's what some known entries look like.
Data request: Name the reported pIC50 value associated with the compound CCOCCOCCn1cc2ccc(Nc3nc(NC4CCCCC4N)c(F)cc3C(N)=O)cc2n1 (centres unmarked) [Example 002-045]
Data returned: 7.30 to 8.00

Data request: Try this compound next: NC(=O)c1cc(F)c(N[C@@H]2CCCC[C@@H]2N)nc1Nc1cnc(O)c(-n2nccn2)c1 [Example 006-504]
Data returned: 7.00 to 7.30

Data request: Try this compound next: C[C@H](N)[C@H](C)Nc1nc(Nc2ccc3ncccc3c2)c(C(N)=O)cc1F [Example 006-181]
Data returned: 6.00 to 7.00

Data request: Try this compound next: NC[C@@H](CC1CC1)Nc1nc(Nc2ccc3ncccc3c2)c(C(N)=O)cc1F [Example 006-214]
Data returned: > 8.00

Data request: Try this compound next: NC(=O)c1cc(F)c(N[C@@H]2CCCC[C@@H]2N)nc1Nc1cncc(-c2cnco2)c1 (relative stereo) [Example 004-118]
Data returned: > 8.00

Continuing:
Data request: Name the reported pIC50 value associated with the compound NC(=O)c1cc(Cl)c(NC2CCCCC2N)nc1Nc1cnc2ccccc2c1 (centres unmarked) [Example 035-001]
Data returned: > 8.00

Data request: Try this compound next: C[C@H](N)[C@@H](C)Nc1nc(Nc2cncc(C3CC3)c2)c(C(N)=O)cc1F (racemic) [Example 006-193]
Data returned: > 8.00

Data request: Try this compound next: COc1cc(Nc2nc(N[C@H](C3CC3)[C@H](C)N)c(F)cc2C(N)=O)ccn1 [Example 006-430]
Data returned: > 8.00

Where do the numbers come from? From patent US8895585B2.
